# HCV NS3-NS4A protease (Hepatitis C virus genotype 1a, UniProt P27958): IC50 values follow
# Sequence (P27958 1027-1208): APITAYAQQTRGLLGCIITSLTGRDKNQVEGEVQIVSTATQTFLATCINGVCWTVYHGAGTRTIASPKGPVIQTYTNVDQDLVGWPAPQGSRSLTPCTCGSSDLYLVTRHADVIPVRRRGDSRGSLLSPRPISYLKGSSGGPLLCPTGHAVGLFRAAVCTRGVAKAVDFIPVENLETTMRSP

Consider the reported IC50 for these compounds:
1) COc1ccc2c(OCC[C@@H]3NC(=O)N(C)CCCC/C=C\[C@@H]4C[C@@]4(C(=O)NS(=O)(=O)N4CCC(F)(F)C4)NC3=O)cc(-c3nc(C(C)C)cs3)nc2c1Cl; 100 to 10000 nM
2) COc1ccc2c(OCCC3NC(=O)N(C)CCCC/C=C\C4CC4(C(=O)NS(=O)(=O)N4CCOCC4)NC3=O)cc(-c3nc(C(C)C)cs3)nc2c1Cl (stereo not shown); 100 to 10000 nM
3) COc1ccc2c(OCC[C@@H]3NC(=O)N(C)CCCC/C=C\[C@@H]4C[C@@]4(C(=O)NS(=O)(=O)C4(C)CC4)NC3=O)cc(-n3ccc(C(C)C)n3)nc2c1C; < 100 nM
4) COc1ccc2c(OCC[C@@H]3NC(=O)N(C)CCCC/C=C\[C@@H]4C[C@@]4(C(=O)S(=O)(=O)C4(C)CC4)NC3=O)cc(-c3ccn(Cc4ccccc4)n3)nc2c1C; < 100 nM
5) COc1ccc2c(OCC[C@@H]3NC(=O)N(C)CCCC/C=C\[C@@H]4C[C@@]4(C(=O)NS(=O)(=O)C4(CC5CC5)CC4)NC3=O)cc(-c3nc(C(C)C)cs3)nc2c1Cl; < 100 nM

The recorded IC50 with HCV NS3-NS4A protease (Hepatitis C virus genotype 1a, UniProt P27958) for COc1ccc2c(OCC[C@@H]3NC(=O)N(C)CCCC/C=C\[C@@H]4C[C@@]4(C(=O)NS(=O)(=O)C4(C)CC4)NC3=O)cc(-c3ccn(CC(C)C)n3)nc2c1C was < 100 nM

The recorded IC50 with HCV NS3-NS4A protease (Hepatitis C virus genotype 1a, UniProt P27958) for C#C[C@@H]1CCCN1S(=O)(=O)NC(=O)[C@@]12C[C@H]1/C=C\CCCCN(C)C(=O)N[C@@H](CCOc1cc(-c3nc(C(C)C)cs3)nc3c(Cl)c(OC)ccc13)C(=O)N2 was < 100 nM

---

Tested on: Huh-7 cells containing HCV Con1 subgenomic replicon (GS4.1 cells)
Experiment: HCV Replicon Assay (NS4A ELISA)
Assay type: cell-based
Conditions: Hepatitis C virus, 72 hr, NS4A protein expression by ELISA
pEC50: −log10 of the molar value.
Below, each entry is listed alongside its reported pEC50.

Consider the reported pEC50 for these molecules:
1) CCC1(S(=O)(=O)NC(=O)[C@@]23C[C@H]2/C=C\CCCCN(C)C(=O)N[C@@H](CCOc2cc(-c4nc(C(C)C)cs4)nc4c(Cl)c(OC)ccc24)C(=O)N3)CC1; > 7.00
2) COc1ccc2c(OCCC3NC(=O)N(C)CCCC/C=C\C4CC4(C(=O)NS(=O)(=O)N(C)C)NC3=O)cc(-c3nc(C(C)C)cs3)nc2c1Cl (stereo not drawn); > 7.00

Reported pEC50 ( CCCn1ccc(-c2cc(OCC[C@@H]3NC(=O)N(C)CCCC/C=C\[C@@H]4C[C@@]4(C(=O)NS(=O)(=O)C4(C)CC4)NC3=O)c3ccc(OC)c(C)c3n2)n1 ) = 5.00 to 7.00

Reported pEC50 ( CCn1ccc(-c2cc(OCC[C@@H]3NC(=O)N(C)CCCC/C=C\[C@@H]4C[C@@]4(C(=O)OS(=O)(=O)C4(C)CC4)NC3=O)c3ccc(OC)c(C)c3n2)n1 ) = 5.00 to 7.00

Reported pEC50 ( COc1ccc2c(C(=O)OCC[C@@H]3NC(=O)N(C)CCCC/C=C\[C@@H]4C[C@@]4(C(=O)NS(=O)(=O)C4CC4)NC3=O)cc(-c3ccccc3)nc2c1 ) = < 3.00

Reported pEC50 ( COc1ccc2c(OCC[C@@H]3NC(=O)N(C)CCCC/C=C\[C@@H]4C[C@@]4(C(=O)NS(=O)(=O)N4CCC(F)(F)C4)NC3=O)cc(-c3nc(C(C)C)cs3)nc2c1Cl ) = 5.00 to 7.00

Reported pEC50 ( COc1ccc2c(OCC[C@@H]3NC(=O)N(C)CCCC/C=C\[C@@H]4C[C@@]4(C(=O)NS(=O)(=O)C4(C)CC4)NC3=O)cc(-n3ccc(C(F)(F)F)n3)nc2c1Cl ) = > 7.00
